Each record here notes measured log10 MBC.
test system: Staphylococcus aureus (ATCC-25923); assay: MBC, sub cultivation from MIC plate; assay type: cell-based; conditions: ATCC25923, S. aureus, read-out: MBC90
Form field - Quantity: MBC; Unit: µg/mL; Scale: log10

Look over these answered cases.
MOLECULE	log10 MBC
Oc1ccccc1-c1nc(-c2ccccn2)c2ccccn12	0.54
Clc1ccccc1-c1nc(-c2ccccn2)c2ccccn12	0.67
Clc1ccccc1C(c1ccccc1)(c1ccccc1)n1ccnc1 [Clotrimazole, reference compound]	-2.52
CC(C)(C)c1cc(-c2nc(-c3ccccn3)c3ccccn23)cc(C(C)(C)C)c1O	0.72
COc1ccc(-c2nc(-c3ccccn3)c3ccccn23)cc1	0.65

Reported log10 MBC for CO/N=C(\C(=O)N[C@@H]1C(=O)N2C(C(=O)O)=C(CSc3nc(=O)c(=O)[nH]n3C)CS[C@H]12)c1csc(N)n1 [Ceftriaxone, reference compound] : what is it?
1.00

* * *

molecular target: papain (Carica papaya); construct: To solutions of active papain (final concentration: 0.05 mM); purchased Sigma Chemical Co., St. Louis, MO, USA; assay: Thermodynamics analysis of papain inhibition (Van't Hoff); type: biochemical; conditions: Value at 37°C
Each record here notes measured ΔS (entropy change).

Look over these answered cases.
MOLECULE	ΔS (entropy change)
Oc1ccccc1-c1nc(-c2ccccn2)c2ccccn12 [Compound 3a]	72.92 (±2.33) Jmol-K^−1
COc1ccc(-c2nc(-c3ccccn3)c3ccccn23)cc1 [Compound 3b]	71.4 (±2.46) Jmol-K^−1
CC(C)(C)c1cc(-c2nc(-c3ccccn3)c3ccccn23)cc(C(C)(C)C)c1O [Compound 3d]	59.73(±1.93) Jmol-K^−1

Consider the record given below.
Reported ΔS (entropy change) for Clc1ccccc1-c1nc(-c2ccccn2)c2ccccn12 [Compound 3c] : what is it?
69.88 (±2.65) Jmol-K^−1

* * *

test system: Proteus vulgaris (ATCC-29905); assay: MBC, sub cultivation from MIC plate; assay type: cell-based; conditions: ATCC29905, P. vulgaris, read-out: MBC90
Note to self: use t only for MBC readings below 3 µg/mL; a reading exactly at 3 µg/mL still gets f.

Example entries begin here.
COMPOUND	ASSIGNED CLASS
CC(C)(C)c1cc(-c2nc(-c3ccccn3)c3ccccn23)cc(C(C)(C)C)c1O [Compound 3d]	f
Clc1ccccc1C(c1ccccc1)(c1ccccc1)n1ccnc1 [Clotrimazole, reference compound]	t
COc1ccc(-c2nc(-c3ccccn3)c3ccccn23)cc1 [Compound 3b]	f
Oc1ccccc1-c1nc(-c2ccccn2)c2ccccn12 [Compound 3a]	f
CO/N=C(\C(=O)N[C@@H]1C(=O)N2C(C(=O)O)=C(CSc3nc(=O)c(=O)[nH]n3C)CS[C@H]12)c1csc(N)n1 [Ceftriaxone, reference compound]	t

Please examine the following record next.
Say whether its MBC is strictly beneath 3 µg/mL. Entry: Clc1ccccc1-c1nc(-c2ccccn2)c2ccccn12 [Compound 3c]
f

* * *

tested on: Proteus vulgaris (ATCC-29905)
Each record here notes measured MIC50.
Output spec: scalar in µg/mL, unitless text.

COMPOUND	MIC50 / µg/mL
Oc1ccccc1-c1nc(-c2ccccn2)c2ccccn12	0.8
Clc1ccccc1C(c1ccccc1)(c1ccccc1)n1ccnc1 [Clotrimazole, reference compound]	0.00084
COc1ccc(-c2nc(-c3ccccn3)c3ccccn23)cc1	0.8
CO/N=C(\C(=O)N[C@@H]1C(=O)N2C(C(=O)O)=C(CSc3nc(=O)c(=O)[nH]n3C)CS[C@H]12)c1csc(N)n1 [Ceftriaxone, reference compound]	0.4
Clc1ccccc1-c1nc(-c2ccccn2)c2ccccn12	1

Consider the record given below.
Reported MIC50 for CC(C)(C)c1cc(-c2nc(-c3ccccn3)c3ccccn23)cc(C(C)(C)C)c1O : what is it?
0.9

* * *

Entries below carry reported MIC50 on Serratia morganii (ATCC- 31665).
Output spec: scalar in µg/mL, unitless text.

Reported MIC50 for CO/N=C(\C(=O)N[C@@H]1C(=O)N2C(C(=O)O)=C(CSc3nc(=O)c(=O)[nH]n3C)CS[C@H]12)c1csc(N)n1 [Ceftriaxone, reference compound] : what is it?
0.9

Likewise for CC(C)(C)c1cc(-c2nc(-c3ccccn3)c3ccccn23)cc(C(C)(C)C)c1O ?
1.1

Likewise for Clc1ccccc1-c1nc(-c2ccccn2)c2ccccn12 ?
1

Likewise for Oc1ccccc1-c1nc(-c2ccccn2)c2ccccn12 ?
0.8

* * *

system: Group D Streptococci (ATCC-12959)
Each record here notes measured MIC50.
Output spec: scalar in µg/mL, unitless text.

Look over these answered cases.
COMPOUND	MIC50 (µg/mL)
Oc1ccccc1-c1nc(-c2ccccn2)c2ccccn12	0.7
Clc1ccccc1-c1nc(-c2ccccn2)c2ccccn12	0.9

Reported MIC50 for CC(C)(C)c1cc(-c2nc(-c3ccccn3)c3ccccn23)cc(C(C)(C)C)c1O : what is it?
1

Likewise for CO/N=C(\C(=O)N[C@@H]1C(=O)N2C(C(=O)O)=C(CSc3nc(=O)c(=O)[nH]n3C)CS[C@H]12)c1csc(N)n1 [Ceftriaxone, reference compound] ?
0.08

* * *

target: papain (Carica papaya); construct: To solutions of active papain (final concentration: 0.05 mM); purchased Sigma Chemical Co., St. Louis, MO, USA; test: Cysteine protease inhibitory activity, papain with Bz-DL-Arg-pNA substrate; format: biochemical; details: 32°C
OBSERVED PROPERTY: pKi
pKi is a log-scale quantity: -log10 of the concentration expressed in molar.

Look over these answered cases.
LINE NOTATION	pKi
Clc1ccccc1-c1nc(-c2ccccn2)c2ccccn12	4.03
CC(C)(C)c1cc(-c2nc(-c3ccccn3)c3ccccn23)cc(C(C)(C)C)c1O	3.96
Oc1ccccc1-c1nc(-c2ccccn2)c2ccccn12	4.84

Consider the record given below.
What pKi appears in the records for this molecule with papain (Carica papaya)? COc1ccc(-c2nc(-c3ccccn3)c3ccccn23)cc1
4.58

* * *

Entries below carry reported log10 of MIC90 on Escherichia coli (ATCC-25922).
Form field - Quantity: MIC90; Unit: µg/mL; Scale: log10

Look over these answered cases.
MOLECULE	OBSERVED PROPERTY	NUMERIC READOUT
CO/N=C(\C(=O)N[C@@H]1C(=O)N2C(C(=O)O)=C(CSc3nc(=O)c(=O)[nH]n3C)CS[C@H]12)c1csc(N)n1 [Ceftriaxone, reference compound]	log10 of MIC90	-0.92
COc1ccc(-c2nc(-c3ccccn3)c3ccccn23)cc1	log10 of MIC90	0.26
Clc1ccccc1C(c1ccccc1)(c1ccccc1)n1ccnc1 [Clotrimazole, reference compound]	log10 of MIC90	1.93
CC(C)(C)c1cc(-c2nc(-c3ccccn3)c3ccccn23)cc(C(C)(C)C)c1O	log10 of MIC90	0.36
Clc1ccccc1-c1nc(-c2ccccn2)c2ccccn12	log10 of MIC90	0.04

What log10 of MIC90 appears in the records for this molecule with Escherichia coli (ATCC-25922)? Oc1ccccc1-c1nc(-c2ccccn2)c2ccccn12
0.00

* * *

molecular target: papain (Carica papaya, UniProt P00784); construct: To solutions of active papain (final concentration: 0.05 mM); purchased Sigma Chemical Co., St. Louis, MO, USA; test: Cysteine protease inhibitory activity, papain with Bz-DL-Arg-pNA substrate; type: biochemical; settings: Lineweaver–Burk plot
Sequence (P00784 134-345): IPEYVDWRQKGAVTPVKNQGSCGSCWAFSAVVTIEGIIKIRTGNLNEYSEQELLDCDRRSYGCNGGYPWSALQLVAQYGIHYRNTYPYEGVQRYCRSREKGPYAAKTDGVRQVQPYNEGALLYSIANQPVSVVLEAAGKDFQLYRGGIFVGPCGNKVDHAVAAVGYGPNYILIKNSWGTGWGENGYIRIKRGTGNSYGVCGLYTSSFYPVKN

LINE NOTATION	Type of inhibition
Clc1ccccc1-c1nc(-c2ccccn2)c2ccccn12	Non -Competitive
CC(C)(C)c1cc(-c2nc(-c3ccccn3)c3ccccn23)cc(C(C)(C)C)c1O	Non -Competitive
